Test system: 5-Lipoxygenase From Stimulated LTB4 Formation in Human Polymorphonuclear Leukocytes
Experiment: Inhibition of calcium ionophore-induced LTB4 formation in human polymorphonuclear leukocytes (PMNL)
Format: cell-based
Conditions: calcium ionophore 8.3 μM, 10 min at 37° C., 15 min preincubation
pIC50 values, listed per item
Formally, pIC50 is defined as -log10 of the concentration c, with c in mol/L.

O=C(O)C=NOC(c1ccc(OCc2ccc3ccccc3n2)cc1)c1ccc(OCc2ccc3ccccc3n2)cc1 [Example 1] :: 7.17
CC(CCC(=O)O)=NOC(c1ccc(OCc2ccc3ccccc3n2)cc1)c1ccc(OCc2ccc3ccccc3n2)cc1 [Example 7] :: 7.30
CC(=NOC(c1ccc(OCc2ccc3ccccc3n2)cc1)c1ccc(OCc2ccc3ccccc3n2)cc1)C(=O)O [Example 2] :: 6.80
CC(=NOC(c1ccc(OCc2ccc3cc(F)ccc3n2)cc1)c1ccc(OCc2ccc3cc(F)ccc3n2)cc1)C(=O)O [Example 6] :: 7.40

Turning now to a further record.
input: // query pIC50 value for entry CC(/C=C/C(=O)O)=NOC(c1ccc(OCc2ccc3ccccc3n2)cc1)c1ccc(OCc2ccc3ccccc3n2)cc1 [Example 8]
output: 7.52
